Values were extracted from patent US20110294741A1.

measurement-description: Cytotoxicity in human hepatocytes (LDH release and ATP)
Assay type: cell-based
test-context: LDH and ATP determination, read-out: LC50 (the source's name)
measurement-type: CC50

Look up CC50 for this molecule: N=C(N)NCCCC(NC(=O)C(N)Cc1ccc(O)cc1)C(N)=O [KTP-NH2, L-Tyr-L-Arg-NH2]
> 125 µM
